Sourced from patent US10947210B2

Here, each record is paired with measured pIC50 data.
Target: HCV RNA-dependent RNA polymerase (NS5B) (Hepatitis C virus genotype 1b (isolate BK) (HCV))
Sequence (P26663 2420-3010): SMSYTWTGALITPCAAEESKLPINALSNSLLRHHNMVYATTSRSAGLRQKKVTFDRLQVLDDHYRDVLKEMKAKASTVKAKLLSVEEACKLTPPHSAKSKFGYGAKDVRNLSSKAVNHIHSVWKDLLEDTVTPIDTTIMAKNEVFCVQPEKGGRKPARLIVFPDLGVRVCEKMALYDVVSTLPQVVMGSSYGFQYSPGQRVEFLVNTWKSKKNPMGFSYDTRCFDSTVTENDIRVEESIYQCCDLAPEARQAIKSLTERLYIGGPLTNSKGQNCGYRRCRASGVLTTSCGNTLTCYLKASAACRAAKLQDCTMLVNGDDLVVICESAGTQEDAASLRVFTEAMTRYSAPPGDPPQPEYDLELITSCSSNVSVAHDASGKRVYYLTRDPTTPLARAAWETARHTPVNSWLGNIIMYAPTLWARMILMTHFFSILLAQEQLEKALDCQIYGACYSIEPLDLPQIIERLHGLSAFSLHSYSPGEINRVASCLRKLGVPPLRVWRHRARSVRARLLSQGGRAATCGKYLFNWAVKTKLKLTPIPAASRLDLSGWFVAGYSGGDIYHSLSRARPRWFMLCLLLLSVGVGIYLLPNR
Test: RNA-Dependent RNA HCV NS5B (polymerase) Assay and IC50 Determination
Type: biochemical
Conditions: purified HCV NS5B polymerase, polyA:U16 substrate, 32P-UTP incorporation; read-out: IC50
pIC50: −log10 of the molar value.

COMPOUND | pIC50
CNC(=O)c1c(-c2ccc(F)cc2)oc2cc(N(CCCOCCOCc3cccc(C(C)=O)c3)S(C)(=O)=O)c(C3CC3)cc12 | < 6.00
CCOC(=O)CCOCCOCCOCCN(c1cc2oc(-c3ccc(F)cc3)c(C(=O)NC)c2cc1C1CC1)S(C)(=O)=O | < 6.00
CCOC(=O)c1ccc(OCCOCCOCCN(c2cc3oc(-c4ccc(F)cc4)c(C(=O)NC)c3cc2C2CC2)S(C)(=O)=O)cc1 | < 6.00
CNC(=O)c1c(-c2ccc(F)cc2)oc2cc(N(CCOCCOCc3ccccc3C(=O)OC)S(C)(=O)=O)c(C3CC3)cc12 | 6.00 to 7.00
CNC(=O)c1c(-c2ccc(F)cc2)oc2cc(N(CCOCCOCCCc3ccc(C(=O)O)cc3)S(C)(=O)=O)c(C3CC3)cc12 | 6.00 to 7.00
CNC(=O)c1c(-c2ccc(F)cc2)oc2cc(N(CCOCCOCCOCCOCc3cccc(C(=O)/C=C(\O)C(=O)O)c3)S(C)(=O)=O)c(C3CC3)cc12 [Compound 02-10C] | 6.00 to 7.00
